This collection of values is drawn from ChEMBL document CHEMBL2046422.

- Tested System: Prostaglandin E synthase (Mus musculus) (UniProt Q9JM51)
- Sequence (Q9JM51 whole entry): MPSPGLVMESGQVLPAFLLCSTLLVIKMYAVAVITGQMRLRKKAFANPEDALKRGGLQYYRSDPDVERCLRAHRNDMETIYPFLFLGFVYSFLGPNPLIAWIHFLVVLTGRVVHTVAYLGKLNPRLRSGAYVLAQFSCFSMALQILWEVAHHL
- Test Summary: Inhibition of mPGES-1 derived from LPS stimulated mouse NIH3T3 cells microsomal fraction using PGH2 as substrate at 1 uM preincubated for 30 mins prior to substrate addition measured after 1 min by LC-MS/MS analysis relative to control
Measured Quantity: inhibition (%)

{"Structure String": "CCCc1nc2ccc(NC(=O)c3ccccc3Cl)cc2c(=O)n1Cc1ccc(-c2ccccc2)cc1", "Readout Value": 20.3}
{"Structure String": "O=C(Nc1ccc2nc(Cc3ccccc3)n(Cc3cccc(Cl)c3)c(=O)c2c1)c1ccccc1Cl", "Readout Value": 17.8}
{"Structure String": "CCCc1nc2ccc(NC(=O)c3ccccc3Cl)cc2c(=O)n1Cc1ccc(-c2cccc(OC)c2)cc1", "Readout Value": 4.6}
{"Structure String": "CCCc1nc2ccc(NC(=O)c3ccccc3C)cc2c(=O)n1Cc1cccc(Cl)c1", "Readout Value": 0.9}
{"Structure String": "CCCc1nc2ccc(NC(=O)c3ccccc3Cl)cc2c(=O)n1Cc1ccc(-c2cccc(Cl)c2)cc1", "Readout Value": 10.7}
{"Structure String": "CCCc1nc2ccc(NC(=O)c3ccccc3Cl)cc2c(=O)n1Cc1cccc(Cl)c1", "Readout Value": -0.8}
{"Structure String": "CCCc1nc2ccc(NC(=O)c3ccccc3Cl)cc2c(=O)n1Cc1ccc(-c2ccc(Cl)cc2)cc1", "Readout Value": 17.1}
{"Structure String": "CCCc1nc2ccc(NC(=O)c3ccccc3Cl)cc2c(=O)n1Cc1ccccc1Cl", "Readout Value": 6.6}
